biological target: High affinity nerve growth factor receptor (Homo sapiens, UniProt P04629); experiment: Kinase Activity Assay: TrkA kinase activity was measured as the ability of the enzyme to phosphorylate a fluorescently labeled peptide substrate. Buffer salts, reagents, and fluorescently labeled peptides were purchased from Carna Biosciences and were of the highest quality available (QSS Assist TRKA_MSA Kit). Enzyme was purchased from Cell Signaling, and was used without further purification. 384-well round bottom assay plates were prepared by the addition of 200 nl of a DMSO solution of compound at various concentrations to final inhibitor concentrations ranging from 100 μM to […]. Next, assay buffer (10 μl) containing substrate and ATP were added, followed by addition of 10 μl of enzyme in assay buffer. Final assays concentrations were: [E]=0.37 nM, [S]=1 μM, [ATP]=2 mM. The reactions were incubated at room temperature for 3 hours resulting in approximately 15% substrate phosphorylation and were terminated by the addition of 5 μl of stop buffer.
Sequence (P04629 whole entry): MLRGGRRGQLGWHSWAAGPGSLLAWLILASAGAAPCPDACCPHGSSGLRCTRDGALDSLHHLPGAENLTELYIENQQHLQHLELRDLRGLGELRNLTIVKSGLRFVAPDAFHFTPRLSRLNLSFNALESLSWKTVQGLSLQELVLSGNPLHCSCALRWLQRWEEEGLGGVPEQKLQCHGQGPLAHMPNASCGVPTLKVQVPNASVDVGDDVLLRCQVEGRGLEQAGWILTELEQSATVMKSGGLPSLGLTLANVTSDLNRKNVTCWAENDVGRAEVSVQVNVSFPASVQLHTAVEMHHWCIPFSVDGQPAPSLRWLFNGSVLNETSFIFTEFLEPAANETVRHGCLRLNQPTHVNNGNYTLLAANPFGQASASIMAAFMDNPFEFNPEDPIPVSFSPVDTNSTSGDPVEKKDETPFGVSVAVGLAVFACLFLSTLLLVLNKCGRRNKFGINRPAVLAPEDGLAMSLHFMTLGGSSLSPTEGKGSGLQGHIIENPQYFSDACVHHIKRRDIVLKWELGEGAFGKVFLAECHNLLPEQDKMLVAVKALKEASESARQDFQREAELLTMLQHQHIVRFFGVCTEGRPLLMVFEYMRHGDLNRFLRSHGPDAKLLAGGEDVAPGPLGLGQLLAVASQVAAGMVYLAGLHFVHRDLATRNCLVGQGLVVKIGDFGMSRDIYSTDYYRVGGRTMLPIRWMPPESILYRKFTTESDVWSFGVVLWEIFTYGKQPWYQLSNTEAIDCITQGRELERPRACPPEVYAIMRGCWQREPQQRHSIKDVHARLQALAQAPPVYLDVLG
Label Criterion met when EC50 < 100 nM; otherwise Criterion not met.

Challenge: Problem: For the molecule CC(C)N(Cc1n[nH]c2ncccc12)C(=O)Nc1ccc(OC(F)(F)F)cc1 , is EC50 under 100 nM?
Response given: Criterion not met

Challenge: Determine whether this molecule shows EC50 lower than 100 nM (ties excluded): CC1(C)CCN(c2ccc(SC(F)(F)F)cc2)C(=O)N1Cc1c[nH]c2ncccc12
Response given: Criterion met

Challenge: I wonder whether CC(C)N(Cc1cccc(-c2nccs2)c1)C(=O)Nc1ccc(OC(F)(F)F)cc1 has EC50 below 100 nM. Can you tell?
Response given: Criterion not met

Challenge: Does the reported EC50 of the following molecule sit strictly below 100 nM? CC(C)N(Cc1cc(-c2nccs2)ccn1)C(=O)Nc1ccc(OC(F)(F)F)cc1
Response given: Criterion not met

Challenge: Please state whether EC50 is below 100 nM for C#CC(C)N(Cc1cccc(-c2nccs2)c1)C(=O)Nc1ccc(OC(F)(F)F)cc1 (configuration not stated)
Response given: Criterion met

Challenge: Decide: EC50 of CC(C)N(Cc1n[nH]c2ncccc12)C(=O)Nc1ccc(SC(F)(F)F)cc1 strictly below 100 nM?
Response given: Criterion met
